# assay.procedure: in vitro
# settings: human
quantity.measured: CC50

# input // lookup CC50 for NC(=O)c1ncn([C@@H]2O[C@H](CO)[C@@H](O)[C@H]2O)n1
# output > 250 µM

----------
# Tested on: HeLa cells
# settings: human
quantity.measured: CC50

# count of solved cases: 2
- CC(C)C[C@H](C(=O)N[C@H]1C(=O)N[C@@H](CC(N)=O)C(=O)N[C@H]2C(=O)N[C@H]3C(=O)N[C@H](C(=O)N[C@H](C(=O)O)c4cc(O)cc(O)c4-c4cc3ccc4O)[C@H](O)c3ccc(c(Cl)c3)Oc3cc2cc(c3O)Oc2ccc(cc2Cl)[C@H]1O)n1cc(COCCOCCOCCOCCOCCCC(F)(F)C(F)(F)C(F)(F)C(F)(F)C(F)(F)C(F)(F)C(F)(F)C(F)(F)F)nn1: > 100 µM
- CC(=O)NC1C(OC2c3ccc(c(Cl)c3)Oc3cc4cc(c3O)Oc3ccc(cc3Cl)CC3NC(=O)C(n5cc(COCCOCCCC(F)(F)C(F)(F)C(F)(F)C(F)(F)F)nn5)c5ccc(O)c(c5)Oc5cc(O)cc(c5)C(NC3=O)C(=O)NC4C(=O)NC3C(=O)NC2C(=O)NC(C(=O)O)c2cc(O)cc(O)c2-c2cc3ccc2O)OC(CO)C(O)C1O (stereo not drawn): 43 µM

# input Entry under review: CC(C)C[C@H](C(=O)N[C@H]1C(=O)N[C@@H](CC(N)=O)C(=O)N[C@H]2C(=O)N[C@H]3C(=O)N[C@H](C(=O)N[C@H](C(=O)O)c4cc(O)cc(O)c4-c4cc3ccc4O)[C@H](O)c3ccc(c(Cl)c3)Oc3cc2cc(c3O)Oc2ccc(cc2Cl)[C@H]1O)n1cc(COCCOCCOCCOCCOCCCC(F)(F)C(F)(F)C(F)(F)C(F)(F)F)nn1 . Reported CC50?
# output > 100 µM
